assayed target: Prostaglandin E synthase (Homo sapiens, UniProt O14684)
Sequence (O14684 whole entry): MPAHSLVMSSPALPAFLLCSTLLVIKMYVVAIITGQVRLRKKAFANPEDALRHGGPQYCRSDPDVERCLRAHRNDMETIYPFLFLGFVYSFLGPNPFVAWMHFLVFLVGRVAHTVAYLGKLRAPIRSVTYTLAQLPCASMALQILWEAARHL
test: Inhibition of mPGES1 in IL-1beta-stimulated human A549 cell microsomes using PGH2 as substrate assessed as reduction in PGE2 production preincubated for 15 mins followed by substrate addition and measured after 1 min by RP-HPLC analysis
reported property: IC50

| smi | reported property | observed |
| --- | --- | --- |
| O=[N+]([O-])c1cc([N+](=O)[O-])c(-c2ccccc2COc2cccc(C(F)(F)F)c2)cc1F | IC50 | 540 nM |
| COCCc1ccc(OCc2ccc(-c3ccc(C(F)(F)F)cc3[N+](=O)[O-])cc2)cc1 | IC50 | > 10000 nM |
| O=[N+]([O-])c1cc(C(F)(F)F)ccc1-c1ccc(COc2cccc3ccccc23)cc1 | IC50 | > 10000 nM |
| O=[N+]([O-])c1cc([N+](=O)[O-])c(-c2ccc(COc3cccc4ccccc34)cc2)cc1F | IC50 | 180 nM |
| O=[N+]([O-])c1cc(C(F)(F)F)ccc1-c1ccc(COc2ccccc2)cc1 | IC50 | > 10000 nM |
| O=[N+]([O-])c1cc(C(F)(F)F)ccc1-c1ccccc1COc1cccc(C(F)(F)F)c1 | IC50 | > 10000 nM |
| O=[N+]([O-])c1cc([N+](=O)[O-])c(-c2ccc(COc3ccccc3)cc2)cc1F | IC50 | 600 nM |
| COCCc1ccc(OCc2ccc(-c3cc(F)c([N+](=O)[O-])cc3[N+](=O)[O-])cc2)cc1 | IC50 | 1640 nM |
| O=[N+]([O-])c1cc([N+](=O)[O-])c(-c2ccc(COc3cccc(C(F)(F)F)c3)cc2)cc1F | IC50 | 260 nM |
| O=[N+]([O-])c1cc(C(F)(F)F)ccc1-c1ccc(COc2cccc(C(F)(F)F)c2)cc1 | IC50 | > 10000 nM |

* * *

assayed target: Prostaglandin E synthase (Homo sapiens)
test: Inhibition of mPGES1 in IL-1beta-stimulated human A549 cell microsomes assessed as remaining activity at 10 uM using PGH2 as substrate by measuring reduction in PGE2 production preincubated for 15 mins followed by substrate addition and measured after 1 min by RP-HPLC analysis
Activity calls are given as the source filed them. The calls are words filed in the database; no cut-off is given here.

| smi | Activity |
| --- | --- |
| O=[N+]([O-])c1cc(C(F)(F)F)ccc1-c1ccc(COc2cccc(C(F)(F)F)c2)cc1 | inactive |
| O=[N+]([O-])c1cc(C(F)(F)F)ccc1-c1ccc(COc2cccc3ccccc23)cc1 | inactive |
| O=[N+]([O-])c1cc([N+](=O)[O-])c(-c2ccc(COc3ccccc3)cc2)cc1F | 9.5% |
| COCCc1ccc(OCc2ccc(-c3ccc(C(F)(F)F)cc3[N+](=O)[O-])cc2)cc1 | inactive |
| O=[N+]([O-])c1cc(C(F)(F)F)ccc1-c1ccc(COc2ccccc2)cc1 | inactive |
| O=[N+]([O-])c1cc([N+](=O)[O-])c(-c2ccc(COc3cccc(C(F)(F)F)c3)cc2)cc1F | 12.1% |
| COCCc1ccc(OCc2ccc(-c3cc(F)c([N+](=O)[O-])cc3[N+](=O)[O-])cc2)cc1 | 11.8% |
| O=[N+]([O-])c1cc([N+](=O)[O-])c(-c2ccc(COc3cccc4ccccc34)cc2)cc1F | 9.1% |
| O=[N+]([O-])c1cc([N+](=O)[O-])c(-c2ccccc2COc2cccc(C(F)(F)F)c2)cc1F | 7% |
| O=[N+]([O-])c1cc(C(F)(F)F)ccc1-c1ccccc1COc1cccc(C(F)(F)F)c1 | inactive |
